Overview of recorded EC50 for various compounds
molecular target: rM4 receptors (Rattus norvegicus, UniProt P08485); assay: Rat M4 PAM pERK assay; settings: PAM mode

input_smiles=Cc1c2c(n(C)c(=O)c1Cl)CN(C(=O)c1cnn(C(C)C)c1)C2 property_name=EC50 experimental_result="> 2000 nM"
input_smiles=Cc1c2c(n(C)c(=O)c1Cl)CN(C(=O)c1ccc(C(F)(F)F)cc1)C2 property_name=EC50 experimental_result="500 to 2000 nM"
input_smiles=Cc1c2c(n(C)c(=O)c1Cl)CN(C(=O)c1ccc3nc(C4CCC4)sc3c1)C2 property_name=EC50 experimental_result="100 to 500 nM"

Exam item: Complete the entry with EC50 for CSc1c2c(n(C)c(=O)c1C)CN(C(=O)c1cnn(C(F)(F)F)c1)C2
Marked response: > 2000 nM

###

molecular target: rM4 receptors (Rattus norvegicus); test: Rat M4 PAM pERK assay; settings: PAM mode
pEC50: −log10 of the molar value.
Overview of recorded pEC50 for various compounds

compound="Cc1c2c(n(C)c(=O)c1Cl)CN(C(=O)c1ccc3nonc3c1)C2 [Compound I-43]" experimental_result="5.70 to 6.30"

Exam item: Complete the entry with pEC50 for Cc1cc(=O)n(C)c2c1C(C)N(C(=O)c1cnc(C(F)(F)F)s1)C2 (single isomer, unassigned) [Compound I-94]
Marked response: < 5.70

Exam item: Complete the entry with pEC50 for Cc1c2c(n(C)c(=O)c1Cl)CN(C(=O)c1cnn(CC(F)(F)F)c1)C2 [Compound I-61]
Marked response: < 5.70

Exam item: Complete the entry with pEC50 for Cc1cc(=O)n(C)c2c1C(C)N(C(=O)c1cnc(C3CC3)s1)C2 (single isomer, unassigned) [Compound I-97]
Marked response: < 5.70

Exam item: Complete the entry with pEC50 for Cc1c2c(n(C)c(=O)c1Cl)CN(C(=O)c1cnn(C(F)(F)F)c1)C2 [Compound I-1]
Marked response: 5.70 to 6.30

Exam item: Complete the entry with pEC50 for Cc1cc(=O)n(C)c2c1C(C)N(C(=O)c1ccc3nc(C(F)(F)F)sc3c1)C2 (single isomer, unassigned) [Compound I-101]
Marked response: < 5.70

Exam item: Complete the entry with pEC50 for Cc1coc(C(=O)N2Cc3c(C)c(Cl)c(=O)n(C)c3C2)n1 [Compound I-22]
Marked response: < 5.70

###

Overview of recorded EC50 for various compounds
biological target: UniProtKB P08485; assay: Rat M4 PAM pERK assay; conditions: PAM mode

compound="COc1c2c(n(C)c(=O)c1C)CN(C(=O)c1cnn(C(F)(F)F)c1)C2C (racemic) [Compound I-82]" property_name=EC50 experimental_result="500 to 2000 nM"
compound="Cc1c2c(n(C)c(=O)c1Cl)C(C)N(C(=O)c1cnn(C(F)(F)F)c1)C2 (single isomer, unassigned) [Compound I-108]" property_name=EC50 experimental_result="> 2000 nM"
compound=Cc1c2c(n(C)c(=O)c1C)CN(C(=O)c1ccc3nc(C4CC4)sc3c1)C2 property_name=EC50 experimental_result="100 to 500 nM"
compound=Cc1c2c(n(C)c(=O)c1Cl)CN(C(=O)c1cnn(Cc3ccncc3)c1)C2 property_name=EC50 experimental_result="> 2000 nM"
compound="Cc1c2c(n(C)c(=O)c1Cl)CN(C(=O)c1cnn(CC3CCOC3)c1)C2 (centres unmarked)" property_name=EC50 experimental_result="> 2000 nM"

Proceed to the following item.
Exam item: Complete the entry with EC50 for COCCn1cc(C(=O)N2Cc3c(C)c(Cl)c(=O)n(C)c3C2)cn1
Marked response: > 2000 nM

###

Overview of recorded pEC50 for various compounds
target: rM4 receptors (Rattus norvegicus); assay: Rat M4 PAM pERK assay; settings: PAM mode
pEC50: −log10 of the molar value.

// below: answered compounds
compound=COc1c2c(n(C)c(=O)c1C)CN(C(=O)c1cnc(CC3CC3)s1)C2 experimental_result="< 5.70"
compound=Cc1c2c(n(C)c(=O)c1Cl)CN(C(=O)c1cnc(C)n1C)C2 experimental_result="< 5.70"
compound=Cc1c2c(n(C)c(=O)c1Cl)CN(C(=O)c1cnn(C)c1)C2 experimental_result="< 5.70"
compound="COc1cc(=O)n(C)c2c1C(C)N(C(=O)c1cnn(C(F)(F)F)c1)C2 (single isomer, unassigned) [Compound I-80]" experimental_result="< 5.70"
compound="COc1c2c(n(C)c(=O)c1Cl)CN(C(=O)c1cnn(C(F)(F)F)c1)C2C (centres unmarked) [Compound I-73]" experimental_result="5.70 to 6.30"

Exam item: Complete the entry with pEC50 for Cc1cc(=O)n(C)c2c1C(C)N(C(=O)c1cnc(C3CC3)s1)C2 (single isomer, unassigned) [Compound I-96]
Marked response: < 5.70

Exam item: Complete the entry with pEC50 for Cc1c2c(n(C)c(=O)c1Cl)CN(C(=O)c1ccc3c(c1)COC3)C2
Marked response: 6.30 to 7.00

Exam item: Complete the entry with pEC50 for Cc1c2c(n(C)c(=O)c1Cl)CN(C(=O)c1ncc3ccccn13)C2
Marked response: < 5.70

###

Overview of recorded pEC50 for various molecules
Target: rM4 receptors (Rattus norvegicus)
Sequence (P08485 1-478): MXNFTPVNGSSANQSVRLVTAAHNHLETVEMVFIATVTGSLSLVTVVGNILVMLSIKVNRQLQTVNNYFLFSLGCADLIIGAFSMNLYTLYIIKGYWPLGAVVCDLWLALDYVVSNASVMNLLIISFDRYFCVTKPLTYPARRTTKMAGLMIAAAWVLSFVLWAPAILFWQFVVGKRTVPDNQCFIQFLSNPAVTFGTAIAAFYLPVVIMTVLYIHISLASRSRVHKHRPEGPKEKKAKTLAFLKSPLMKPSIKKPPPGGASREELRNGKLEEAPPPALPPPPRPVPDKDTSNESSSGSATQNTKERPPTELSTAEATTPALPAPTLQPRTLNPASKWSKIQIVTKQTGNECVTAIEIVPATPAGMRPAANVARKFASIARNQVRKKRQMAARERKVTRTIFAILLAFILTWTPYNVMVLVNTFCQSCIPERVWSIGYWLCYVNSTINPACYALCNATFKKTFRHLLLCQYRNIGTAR
Assay: Rat M4 PAM pERK assay
Conditions: PAM mode
pEC50: −log10 of the molar value.

// below: answered molecules
molecule="Cc1c2c(n(C)c(=O)c1Cl)CN(C(=O)c1cnc(CC3CC3(F)F)s1)C2 (centres unmarked) [Compound I-66]" property_name=pEC50 experimental_result="< 5.70"
molecule="Cc1cc(=O)n(C)c2c1C(C)N(C(=O)c1ccc3nc(C(F)(F)F)sc3c1)C2 (single isomer, unassigned) [Compound I-100]" property_name=pEC50 experimental_result="< 5.70"
molecule="Cc1c2c(n(C)c(=O)c1Cl)CN(C(=O)c1cnc(C3CCC3)s1)C2 [Compound I-35]" property_name=pEC50 experimental_result="< 5.70"
molecule="Cc1c2c(n(C)c(=O)c1Cl)CN(C(=O)c1ccc(C(F)(F)F)nc1)C2 [Compound I-44]" property_name=pEC50 experimental_result="5.70 to 6.30"
molecule="Cc1c2c(n(C)c(=O)c1Cl)CN(C(=O)c1cn(C(C)C)cn1)C2 [Compound I-14]" property_name=pEC50 experimental_result="< 5.70"

Exam item: Determine reported pEC50 for Cc1c2c(n(C)c(=O)c1Cl)CN(C(=O)c1cn(C)cn1)C2 [Compound I-4] ; test system: rM4 receptors (Rattus norvegicus).
Marked response: < 5.70

Exam item: Determine reported pEC50 for Cc1c2c(n(C)c(=O)c1Cl)CN(C(=O)c1cnc(C(F)F)s1)C2 [Compound I-36] ; test system: rM4 receptors (Rattus norvegicus).
Marked response: 5.70 to 6.30

Exam item: Determine reported pEC50 for Cc1cc(=O)n(C)c2c1[C@@H](C)N(C(=O)c1ccc3nc(C4CC4)sc3c1)C2 [Compound I-103] ; test system: rM4 receptors (Rattus norvegicus).
Marked response: 5.70 to 6.30

###

target: UniProt P08173; assay: M4 GTPγS PAM assay; conditions: CHO-K1 membranes expressing human M4, with EC20 acetylcholine (40 nM)
Sequence (P08173 whole entry): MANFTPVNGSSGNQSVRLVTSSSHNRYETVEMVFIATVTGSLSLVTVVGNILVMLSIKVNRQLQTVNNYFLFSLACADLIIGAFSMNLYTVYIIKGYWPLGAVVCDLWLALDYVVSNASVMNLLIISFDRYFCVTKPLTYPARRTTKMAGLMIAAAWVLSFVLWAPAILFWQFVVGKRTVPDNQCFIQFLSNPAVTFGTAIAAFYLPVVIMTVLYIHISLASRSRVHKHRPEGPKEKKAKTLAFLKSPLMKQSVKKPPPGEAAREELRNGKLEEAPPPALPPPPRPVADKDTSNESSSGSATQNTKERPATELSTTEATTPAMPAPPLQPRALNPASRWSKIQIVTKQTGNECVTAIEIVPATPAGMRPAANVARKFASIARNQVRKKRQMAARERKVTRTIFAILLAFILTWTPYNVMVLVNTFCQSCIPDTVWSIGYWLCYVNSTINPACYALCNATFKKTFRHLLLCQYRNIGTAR
Property Name: EC50

// below: answered compounds
compound="Cc1c2c(n(CC(F)(F)F)c(=O)c1Cl)CN(C(=O)c1cnc(CC3CC3)s1)C2 [Compound I-71]" experimental_result="> 2000 nM"
compound="Cc1c2c(n(C)c(=O)c1Cl)CN(C(=O)c1cnn(C(F)(F)F)c1)[C@@H]2C [Compound I-76]" experimental_result="< 100 nM"
compound="Cc1cc(=O)n(C)c2c1CN(C(=O)c1cnn(C)c1)C2C (single isomer, unassigned) [Compound I-106]" experimental_result="> 2000 nM"

Proceed to the following item.
Exam item: Complete the entry with EC50 for CSc1c2c(n(C)c(=O)c1C)CN(C(=O)c1cnn(C(F)(F)F)c1)C2 [Compound I-90]
Marked response: 500 to 2000 nM
